Test: Pharmacokinetics after single dose of ELQ-598
Assay type: in vivo
Details: male, CD1, in vivo; mouse plasma, single ELQ-598 dose 0.3 mg/kg IV
Method: Animals had free access to food and water during the study. Following drug administration, the animals were manually restrained at the designated time points, and 100 μL of blood was withdrawn from the facial vein for semiserial sampling into heparinized tubes. Blood samples were placed on ice and centrifuged (2000g, 5 min, 4 °C) to obtain plasma. The plasma was mixed with 10% formic acid (FA) in water [plasma/10% FA (v/v = 10:1)]. […]
ENDPOINT_NAME: k el (s⁻¹)
Numeric only. Scale: s⁻¹

COc1cc2[nH]c(C)c(-c3ccc(-c4ccc(OC(F)(F)F)cc4)cc3)c(=O)c2cc1Cl has a reported k el of 6.94e-06

====

test: Pharmacokinetics after single dose of ELQ-598; type: in vivo; conditions: male, CD1; mouse plasma, single ELQ-598 dose 0.3 mg/kg IV
Each record here notes measured AUC(0-inf).
Numeric only. Scale: ng·h/mL

CCOC(=O)OCOc1c(-c2ccc(-c3ccc(OC(F)(F)F)cc3)cc2)c(C)nc2cc(OC)c(Cl)cc12 [ELQ-598] has a reported AUC(0-inf) of 757

***
COc1cc2[nH]c(C)c(-c3ccc(-c4ccc(OC(F)(F)F)cc4)cc3)c(=O)c2cc1Cl [ELQ-596] has a reported AUC(0-inf) of 12200

====

Each record here notes measured Tmax.
test: Pharmacokinetics after single dose of ELQ-598; format: in vivo; conditions: male, CD1, mouse, plasma, po, 10 mg/kg, mouse plasma, single ELQ-598 dose 10 mg/kg PO (PEG400); read-out: Tmax

COc1cc2[nH]c(C)c(-c3ccc(-c4ccc(OC(F)(F)F)cc4)cc3)c(=O)c2cc1Cl has a reported Tmax of 4 h

With those in mind, consider the next molecule.
CCOC(=O)OCOc1c(-c2ccc(-c3ccc(OC(F)(F)F)cc3)cc2)c(C)nc2cc(OC)c(Cl)cc12 has a reported Tmax of ≤ 2 h

====

Each record here notes measured log10 IC50.
test system: P. falciparum atovaquone-resistant clinical isolate Tm90-C2B; test: SYBR Green I antiplasmodial assay, Tm90-C2B; assay type: cell-based; conditions: Plasmodium falciparum, TM90, 72 h, read-out: P. falciparum IC50 values, Tm90-C2B
Quick note: numbers are log10 of IC50, with nM as the unit.

Some molecules with recorded log10 IC50:
COc1cc2[nH]c(C)c(-c3ccc(-c4cccc(C(F)(F)F)c4)cc3)c(=O)c2cc1Cl [ELQ-646] has a reported log10 IC50 of 0.00

COc1cc2[nH]c(C)c(-c3ccc(-c4ccc(Cl)cc4)cc3)c(=O)c2cc1Cl [ELQ-637] has a reported log10 IC50 of 0.48

COc1cc2[nH]c(C)c(-c3ccc(-c4ccc(OC(F)(F)F)cc4)cc3)c(=O)c2cc1F [ELQ-650] has a reported log10 IC50 of -0.40

***
Cc1[nH]c2c(c(=O)c1-c1ccc(-c3ccc(OC(F)(F)F)cc3)cc1)CCCC2 [ELQ-660] has a reported log10 IC50 of 0.90

COc1cc2[nH]c(C)c(-c3ccc(-c4cccc(S(F)(F)(F)(F)F)c4)cc3)c(=O)c2cc1Cl [ELQ-662] has a reported log10 IC50 of 0.15

Cc1[nH]c2cc(F)cc(F)c2c(=O)c1-c1ccc(-c2ccc(OC(F)(F)F)cc2)cc1 [ELQ-601] has a reported log10 IC50 of 1.39

Cc1[nH]c2cc(F)cc(F)c2c(=O)c1-c1ccc(Oc2ccc(OC(F)(F)F)cc2)cc1 [ELQ-400, reference compound] has a reported log10 IC50 of 1.29

COc1ccc(-c2ccc(-c3c(C)[nH]c4cc(OC)c(Cl)cc4c3=O)cc2)cc1 [ELQ-645] has a reported log10 IC50 of 0.78
